The measured values listed here are drawn from patent US7879795B2.

assay: Tissue levels after 2-hour IV infusion in rats; type: in vivo, rat; details: rat liver; 4 h after end of 2-hour IV infusion, 10 mg/kg
Please provide measured concentration at 6 h for the entries that follow.
Kindly provide the numeric value in ng/mL only, without the unit symbol.

// query concentration at 6 h value for entry NCCC[C@H](N)C(=O)N[C@H](Cc1ccc(C(F)(F)F)cc1)C(=O)Nc1cnc2ccccc2c1 [Compound 21]
200

How about NCCC[C@H](N)C(=O)N[C@H](CCc1ccccc1)C(=O)Nc1ccc2ncccc2c1 [Compound 7] ?
270

----------
test: Tissue levels after 2-hour IV infusion in rats; format: in vivo, rat; conditions: rat brain; 2 h after end of 2-hour IV infusion, 10 mg/kg
Task for the reader: assign each of the following molecules its reported concentration at 4 h.
Give your result in ng/mL as a bare value.

Quick check: concentration at 4 h of "NCCC[C@@H](N)C(=O)N[C@H](CCc1ccccc1)C(=O)Nc1cnc2ccccc2c1" ?
130

And then "NCCC[C@H](N)C(=O)N[C@H](CCc1ccccc1)C(=O)Nc1cnc2ccccc2c1" , what is it?
210

Then what about the molecule "NCCC[C@H](N)C(=O)N[C@H](Cc1ccc(C(F)(F)F)cc1)C(=O)Nc1cnc2ccccc2c1" ?
470

----------
Assay: Tissue levels after 2-hour IV infusion in rats
Type: in vivo, rat
Conditions: rat lung; 4 h after end of 2-hour IV infusion, 10 mg/kg
Procedure: Levels of EPIs in various tissues were evaluated after 2-hour IV infusion in rats. The rats received 10 mg/kg IV infusion through FVC. Animals were divided into 2 groups: group 1 was sacrificed immediately after the end of infusion and group 2, 2 h or 4 h after the end of infusion. Tissues from each animal were collected, homogenized and compounds were extracted. Tissues were mixed with saline at 1:1 ratio (v/w) in 12×75 mm polypropylene round bottom tubes. […]
Exercise: state measured concentration at 6 h for each of the molecules provided.
Units required after the number.

Query: concentration at 6 h; subject: NCCC[C@H](N)C(=O)N[C@H](CCc1ccccc1)C(=O)Nc1ccc2ncccc2c1 [Compound 7]
3170 ng/mL

And for NCCC[C@H](N)C(=O)N[C@H](Cc1ccc(C(F)(F)F)cc1)C(=O)Nc1cnc2ccccc2c1 [Compound 21] ?
3900 ng/mL

----------
test: Tissue levels after 2-hour IV infusion in rats; type: in vivo, rat; settings: rat heart; end of 2-hour IV infusion, 10 mg/kg
Task for the reader: assign each of the following compounds its reported concentration at 2 h.
Unit ng/mL implied. Number only.

# lookup: concentration at 2 h of "NCCC[C@H](N)C(=O)N[C@H](CCc1ccccc1)C(=O)Nc1cnc2ccccc2c1"
2260

Same for "NCCC[C@@H](N)C(=O)N[C@H](CCc1ccccc1)C(=O)Nc1cnc2ccccc2c1"
2180

Can you check "NCCC[C@H](N)C(=O)N[C@H](Cc1ccc(C(F)(F)F)cc1)C(=O)Nc1cnc2ccccc2c1" next?
5250

----------
test: Tissue levels after 2-hour IV infusion in rats; assay type: in vivo, rat; details: rat muscle; 2 h after end of 2-hour IV infusion, 10 mg/kg
attribute-measured: concentration at 4 h (ng/mL)
Lab book: enter the figure in ng/mL, no units written.

Which concentration at 4 h value belongs to "NCCC[C@H](N)C(=O)N[C@H](Cc1ccc(C(F)(F)F)cc1)C(=O)Nc1cnc2ccccc2c1" ?
1360

Try this compound too: "NCCC[C@@H](N)C(=O)N[C@H](CCc1ccccc1)C(=O)Nc1cnc2ccccc2c1"
2860

Subsequent entry: "NCCC[C@H](N)C(=O)N[C@H](CCc1ccccc1)C(=O)Nc1cnc2ccccc2c1"
1140

----------
tested on: P. aeruginosa, PAM1723, overexpressing the MexAB-OprM efflux pump; experiment: Levofloxacin potentiation checkerboard assay (broth microdilution); format: cell-based; conditions: EPI 20 μg/ml
attribute-measured: Antibiotic (levofloxacin) MIC in the presence of EPI (µg/mL)
# number only, unit µg/mL dropped from output

Could you tell me which Antibiotic (levofloxacin) MIC in the presence of EPI is on file for "NCCC[C@H](N)C(=O)N[C@H](CCc1ccccc1)C(=O)Nc1cnc2ccccc2c1" ?
0.015

Follow-up item: "NCCC[C@H](N)C(=O)N[C@@H](CCc1ccccc1)C(=O)Nc1cnc2ccccc2c1"
0.125

Same again, this time with "NCCC[C@@H](N)C(=O)N[C@@H](CCc1ccccc1)C(=O)Nc1cnc2ccccc2c1"
0.06

One more molecule: "NCCC[C@@H](N)C(=O)N[C@H](CCc1ccccc1)C(=O)Nc1cnc2ccccc2c1"
0.03

----------
tested on: P. aeruginosa, PAM1723, overexpressing the MexAB-OprM efflux pump; assay: Levofloxacin potentiation checkerboard assay (broth microdilution); assay type: cell-based; conditions: EPI 1.25 μg/ml
attribute-measured: Antibiotic (levofloxacin) MIC in the presence of EPI (µg/mL)
Please reply with the bare figure in µg/mL and do not write the unit itself.

Suppose we examine the compound "NCCC[C@H](N)C(=O)N[C@@H](CCc1ccccc1)C(=O)Nc1cnc2ccccc2c1" ; what Antibiotic (levofloxacin) MIC in the presence of EPI value has been reported?
2

Request: "NCCC[C@@H](N)C(=O)N[C@H](CCc1ccccc1)C(=O)Nc1cnc2ccccc2c1"
2

Continue with "NCCC[C@H](N)C(=O)N[C@H](CCc1ccccc1)C(=O)Nc1cnc2ccccc2c1"
2

Similarly, "NCCC[C@@H](N)C(=O)N[C@@H](CCc1ccccc1)C(=O)Nc1cnc2ccccc2c1" ?
2

----------
assay: Tissue levels in rat six-hour after 8.4 mg/kg IV bolus; format: in vivo; settings: rat kidney, liver and lung; 8.4 mg/kg IV bolus; in words
attribute-measured: tissue levels at 6 hours after IV injection

molecular-string | test-result
NCCC[C@@H](N)C(=O)N[C@@H](CCc1ccccc1)C(=O)Nc1cnc2ccccc2c1 | relatively high levels
NCCC[C@@H](N)C(=O)N[C@H](CCc1ccccc1)C(=O)Nc1cnc2ccccc2c1 | relatively high levels

----------
assay: Tissue levels after 2-hour IV infusion in rats; type: in vivo, rat; details: rat heart; 4 h after end of 2-hour IV infusion, 10 mg/kg
attribute-measured: concentration at 6 h (ng/mL)
# value in ng/mL; strip the unit string

Bench note: what concentration at 6 h did "NCCC[C@H](N)C(=O)N[C@H](Cc1ccc(C(F)(F)F)cc1)C(=O)Nc1cnc2ccccc2c1" show?
720

----------
test: Tissue levels after 2-hour IV infusion in rats; assay type: in vivo, rat; settings: rat thymus; 4 h after end of 2-hour IV infusion, 10 mg/kg
attribute-measured: concentration at 6 h (ng/mL)
Quick note: give the figure in ng/mL, leave out the unit.

Quick one: concentration at 6 h of NCCC[C@H](N)C(=O)N[C@H](Cc1ccc(C(F)(F)F)cc1)C(=O)Nc1cnc2ccccc2c1 [Compound 21] ?
3590

----------
assay: Tissue levels after 2-hour IV infusion in rats; format: in vivo, rat; details: rat heart; 2 h after end of 2-hour IV infusion, 10 mg/kg
attribute-measured: concentration at 4 h (ng/mL)
Return type: number; implicit unit ng/mL.

# input compound: "NCCC[C@H](N)C(=O)N[C@H](CCc1ccccc1)C(=O)Nc1cnc2ccccc2c1" ; wanted: its concentration at 4 h
470

Same again, this time with "NCCC[C@H](N)C(=O)N[C@H](Cc1ccc(C(F)(F)F)cc1)C(=O)Nc1cnc2ccccc2c1"
1760

Repeat for the following compound: "NCCC[C@@H](N)C(=O)N[C@H](CCc1ccccc1)C(=O)Nc1cnc2ccccc2c1"
2340

----------
test: Tissue levels after 2-hour IV infusion in rats; format: in vivo, rat; conditions: rat liver; end of 2-hour IV infusion, 10 mg/kg
attribute-measured: concentration at 2 h (ng/mL)
Give just the numeric value; ng/mL need not be written.

May I ask what concentration at 2 h has been recorded for "NCCC[C@@H](N)C(=O)N[C@H](CCc1ccccc1)C(=O)Nc1cnc2ccccc2c1" ?
10600

Can you check "NCCC[C@H](N)C(=O)N[C@H](CCc1ccccc1)C(=O)Nc1ccc2ncccc2c1" next?
7960

How about "NCCC[C@H](N)C(=O)N[C@H](Cc1ccc(C(F)(F)F)cc1)C(=O)Nc1cnc2ccccc2c1" ?
5950

"NCCC[C@H](N)C(=O)N[C@H](CCc1ccccc1)C(=O)Nc1cnc2ccccc2c1" ?
1330

----------
Test: Tissue levels after 2-hour IV infusion in rats
Assay type: in vivo, rat
Conditions: rat lung; 2 h after end of 2-hour IV infusion, 10 mg/kg
Method: Levels of EPIs in various tissues were evaluated after 2-hour IV infusion in rats. The rats received 10 mg/kg IV infusion through FVC. Animals were divided into 2 groups: group 1 was sacrificed immediately after the end of infusion and group 2, 2 h or 4 h after the end of infusion. Tissues from each animal were collected, homogenized and compounds were extracted. Tissues were mixed with saline at 1:1 ratio (v/w) in 12×75 mm polypropylene round bottom tubes. […]
attribute-measured: concentration at 4 h (ng/mL)
# unit: ng/mL | format: bare number

What value of concentration at 4 h has been reported for the following molecule? NCCC[C@H](N)C(=O)N[C@H](CCc1ccccc1)C(=O)Nc1cnc2ccccc2c1 [Compound 3]
1910

Next molecule: NCCC[C@@H](N)C(=O)N[C@H](CCc1ccccc1)C(=O)Nc1cnc2ccccc2c1 [Compound 1]
4180
